TARGET UNDER TEST: Tyrosine-protein phosphatase non-receptor type 1 (Homo sapiens, UniProt P18031)
Sequence (P18031 whole entry, the tested form may be a part): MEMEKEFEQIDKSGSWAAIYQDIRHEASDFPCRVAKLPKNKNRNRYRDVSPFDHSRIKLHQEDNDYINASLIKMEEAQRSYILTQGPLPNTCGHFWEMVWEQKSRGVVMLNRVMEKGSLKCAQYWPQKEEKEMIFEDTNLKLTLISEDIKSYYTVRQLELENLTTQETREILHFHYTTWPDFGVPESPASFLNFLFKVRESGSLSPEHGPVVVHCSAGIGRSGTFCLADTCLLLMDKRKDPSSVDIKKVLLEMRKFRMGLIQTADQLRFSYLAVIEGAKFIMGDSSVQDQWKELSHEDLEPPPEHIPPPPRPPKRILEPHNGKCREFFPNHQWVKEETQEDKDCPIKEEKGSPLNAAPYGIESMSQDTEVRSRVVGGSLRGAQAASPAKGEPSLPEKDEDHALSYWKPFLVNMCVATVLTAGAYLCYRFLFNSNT
RUN DESCRIPTION: Inhibition of human recombinant PTP1B (1 to 322 residues) expressed in Escherichia coli using pNPP as substrate preincubated for 10 mins followed by substrate addition and measured after every 30 secs for 10 mins by photometric method
# reported pIC50; entries follow
To interpret pIC50, take it as minus log10 of a concentration measured in moles per litre.

// below: answered compounds
CCCCCCCCCCCCCCCC(=O)C1=C(O)[C@@H](CO)OC1=O ... 5.14
CCCCCCC/C=C/C(C)=C/C=C/C(=O)O ... 4.14

What does the data say about its pIC50? Entry: CCCCCCC[C@H]1[C@H](/C(=C/C=C/C(=O)O)COC(C)=O)[C@@H](/C=C/C(=O)O)C(COC(C)=O)=C[C@H]1CCCCCCC
4.92

Origin of the recorded values: ChEMBL document CHEMBL4616647
